Test: inducers of Vibrio cholerae quorum light production without autoinducers, primary screen, BH1578 luxS cqsA deficient, single point (AID 588436)
Conditions: V. cholerae BH1578 lux reporter, luminescence, 6 h, at 18.7 µM
The campaign covered roughly 350,000 compounds. About 550 (0.16%) were called active. No stated cut-off is given here; in the data, active means activation mostly above about 9.7% (no sharp cut-off); inconclusive means no clear call, values can overlap the other calls; inactive means mostly below about 3.7%. This excerpt belongs to a sample that is enriched for actives.
Mark one answer only. Choices: active, inactive

Worked set:
COMPOUND	CLASS_NAME
CC(C)CNC(=O)COC(=O)/C=C/c1ccccc1[N+](=O)[O-]	inactive
CCN(CC(=O)Nc1cc(Cl)ccc1C)C(=O)CSCc1ccccc1	inactive
CC(C)CC(=O)N1CCN(Cc2ccccc2Br)CC1	active

Prompt line: Recorded test call requested for Cc1cc(NC(=O)CN2CCC(O)(c3cccc(F)c3)CC2)no1
Response line: inactive

Prompt line: Recorded test call requested for CC(C)CC(=O)N1CCN(Cc2cccc(Cl)c2)CC1
Response line: inactive

Prompt line: Recorded test call requested for CCCC(=O)n1nc(NCc2ccc(OC)cc2)nc1NCc1ccc(OC)cc1
Response line: inactive

Prompt line: Recorded test call requested for CCN(CC(=O)NCc1ccc(Cl)cc1)C(=O)c1c(C)noc1C
Response line: inactive

Prompt line: Recorded test call requested for CCCn1nnnc1NCc1ccc(OC)cc1
Response line: active

---

Assay: inducers of Vibrio cholerae quorum light production without autoinducers, primary screen, BH1578 luxS cqsA deficient, single point (AID 588436)
Conditions: V. cholerae BH1578 lux reporter, luminescence, 6 h, at 18.7 µM
The campaign covered roughly 350,000 compounds. About 550 (0.16%) were called active. Cut-off read from the data, not from the text of the source: active = activation mostly above about 9.7% (no sharp cut-off); inconclusive = no clear call, values can overlap the other calls; inactive = mostly below about 3.7%. This excerpt belongs to a sample that is enriched for actives.
Mark one answer only. Choices: TRUE = active, FALSE = inactive

Worked set:
MOLECULE	CLASS_NAME
COc1ccc(S(=O)(=O)N(C)C[C@H]2Oc3c(NC(=O)Nc4ccc5c(c4)OCO5)cccc3C(=O)N([C@H](C)CO)C[C@@H]2C)cc1	FALSE
COc1ccc(Cl)cc1NC(=O)COC(=O)c1ccc(Br)o1	TRUE
COc1cccc(-n2c(N)cc(=O)nc2SCC(=O)Nc2cc(C)on2)c1	FALSE

Prompt line: Recorded test call requested for COC(=O)C1=C(C)N(c2ccc(C)cc2)/C(=C/c2ccc(O)cc2)C1=O
Response line: FALSE

Prompt line: Recorded test call requested for Cc1ccc(S(=O)(=O)NNC(=O)/C=C/c2cccc(F)c2)cc1
Response line: FALSE

Prompt line: Recorded test call requested for Cc1cc(-n2cnc(-c3cn(C)nc3C)n2)no1
Response line: FALSE

Prompt line: Recorded test call requested for Cc1cc(C)c(S(=O)(=O)N(C)CC(=O)NCC2CCCO2)c(C)c1 (stereo unspecified)
Response line: FALSE

Prompt line: Recorded test call requested for CC(C)CC(N=C1NC(C)(C)Cc2ccccc21)C(=O)O (stereo unspecified)
Response line: FALSE

Prompt line: Recorded test call requested for O=C(c1ccc(F)cc1)N1CCC(C(=O)N2CCN(S(=O)(=O)c3ccccc3Br)CC2)CC1
Response line: FALSE

Prompt line: Recorded test call requested for CCCCNC(=O)C1CCCN(S(=O)(=O)c2ccc(S(=O)(=O)NCC(C)C)cc2)C1 (stereo unspecified)
Response line: FALSE

Prompt line: Recorded test call requested for CCn1nnc2cc(C(=O)Nc3ccc(C(=O)OC(C)C)cc3)ccc21
Response line: FALSE

Prompt line: Recorded test call requested for Fc1c(F)c(C(F)(F)F)c(F)c(F)c1N1CCN(c2ccc3nnc(C(F)(F)F)n3n2)CC1
Response line: FALSE

---

activation by entry:
Experiment: inducers of Vibrio cholerae quorum light production without autoinducers, primary screen, BH1578 luxS cqsA deficient, single point (AID 588436)
Settings: V. cholerae BH1578 lux reporter, luminescence, 6 h, at 18.7 µM; active compounds read high
About 550 (0.16%) of roughly 350,000 compounds were called active. The list comes from a sample in which actives are over-represented; it also holds close analogues and randomly drawn compounds.

Previously resolved entries follow.
COMPOUND	MEASURED_METRIC	VALUE_MEASURED
Cc1nonc1C1CCCN1Cc1nc(-c2ccc(F)cc2F)oc1C (stereo unspecified)	activation	2.27% (inactive)
CC(C)(C)c1ccc(/C=C2\Oc3c(ccc(O)c3CN3CCN(CCO)CC3)C2=O)cc1	activation	-0.166% (inactive)
COc1cccc(N(C(=O)CNC(=O)c2ccco2)C(C(=O)NC2CCCCC2)c2cccnc2)c1 (stereo unspecified)	activation	0.162% (inactive)

Next up:
get_value(item= Cc1ccc(Cl)cc1NC(=O)C1CCCN(c2cnccn2)C1 (stereo unspecified) , readout=activation) returns -2.5% (inactive)

---

Assay: inducers of Vibrio cholerae quorum light production without autoinducers, primary screen, BH1578 luxS cqsA deficient, single point (AID 588436)
Details: V. cholerae BH1578 lux reporter, luminescence, 6 h, at 18.7 µM
The whole screen tested about 350,000 compounds, of which about 550 (0.16%) were called active. No stated cut-off is given here; in the data, active means activation mostly above about 9.7% (no sharp cut-off); inconclusive means no clear call, values can overlap the other calls; inactive means mostly below about 3.7%. The sample holds actives, similar compounds and a random draw of the others, so the mix is not that of the screen.
Mark one answer only. Choices: active, inactive

Prompt line: Recorded test call requested for CCOc1ccc(S(=O)(=O)N/N=C(\C)c2ccc(Cl)c(Cl)c2Cl)cc1
Response line: inactive

Prompt line: Recorded test call requested for O=C(c1cccs1)n1nc(NCc2ccccc2)nc1NCc1ccccc1
Response line: inactive

Prompt line: Recorded test call requested for CN(C)/C=C/c1c(C#N)c(=O)ncn1Cc1ccccc1
Response line: inactive

Prompt line: Recorded test call requested for Cc1c(C#N)c2ncn(CC#N)c(=O)c2n1-c1ccccc1
Response line: active

Prompt line: Recorded test call requested for O=C(Cc1ccc([N+](=O)[O-])cc1)Nc1ccc(C(=O)N2CCOCC2)cc1
Response line: inactive

---

Test: inducers of Vibrio cholerae quorum light production without autoinducers, primary screen, BH1578 luxS cqsA deficient, single point (AID 588436)
Conditions: V. cholerae BH1578 lux reporter, luminescence, 6 h, at 18.7 µM
The campaign covered roughly 350,000 compounds. About 550 (0.16%) were called active. Cut-off read from the data, not from the text of the source: active = activation mostly above about 9.7% (no sharp cut-off); inconclusive = no clear call, values can overlap the other calls; inactive = mostly below about 3.7%. The sample as a whole holds a higher share of actives than the screen did.
Mark one answer only. Choices: active, inactive

Prompt line: Recorded test call requested for COC(=O)c1ccc(CNC(=O)Cn2cc(C)c(=O)[nH]c2=O)cc1
Response line: inactive

---

Experiment: inducers of Vibrio cholerae quorum light production without autoinducers, primary screen, BH1578 luxS cqsA deficient, single point (AID 588436)
Details: V. cholerae BH1578 lux reporter, luminescence, 6 h, at 18.7 µM
About 550 (0.16%) of roughly 350,000 compounds were called active. No stated cut-off is given here; in the data, active means activation mostly above about 9.7% (no sharp cut-off); inconclusive means no clear call, values can overlap the other calls; inactive means mostly below about 3.7%. For the sample, actives were picked, then their nearest neighbours and some compounds at random.
Mark one answer only. Choices: YES = active, NO = inactive

Worked set:
MOLECULE	CLASS_NAME
CS(=O)(=O)N1CCC(C(=O)N2CCN(c3ccccc3)CC2)CC1	NO
O=C(NC1CCN(C(=S)NCc2ccco2)CC1)c1ccc(F)cc1	NO
C=CCn1cc(-c2cccc(C(F)(F)F)c2)cc(C#N)c1=O	NO
O=S(=O)(c1cccc(C(F)(F)F)c1)N1CCN(c2cnccn2)CC1	NO
COC(=O)c1ccc(C2NC(=O)NC(C)=C2C(=O)N(C)C)cc1 (centres undefined)	NO

Now examine the next entry.
Prompt line: Recorded test call requested for COc1ccc(S(=O)(=O)N2CCSCC2)cc1
Response line: NO

---

Test: inducers of Vibrio cholerae quorum light production without autoinducers, primary screen, BH1578 luxS cqsA deficient, single point (AID 588436)
Details: V. cholerae BH1578 lux reporter, luminescence, 6 h, at 18.7 µM
Screen size: about 350,000 compounds; about 550 (0.16%) were called active. No stated cut-off is given here; in the data, active means activation mostly above about 9.7% (no sharp cut-off); inconclusive means no clear call, values can overlap the other calls; inactive means mostly below about 3.7%. This excerpt belongs to a sample that is enriched for actives.
Mark one answer only. Choices: active, inactive

COMPOUND	CLASS_NAME
CCCCCCn1c(=O)n2n(c1=O)C[C@]1(OC(=O)NCc3ccc(OC)c(OC)c3)CN(S(=O)(=O)c3ccc(C)cc3)C[C@]1(O)C2	inactive
Cc1ccc(C(=O)Cc2nnc(C)s2)cc1	inactive
CC(C)Cc1ccc(S(=O)(=O)N2CCN(C(=O)c3ccco3)CC2)cc1	inactive

Prompt line: Recorded test call requested for Cc1cc(C)c(C#N)c(SCC(=O)NN2CC(=O)N(c3ccccc3F)CC2=O)n1
Response line: inactive

Prompt line: Recorded test call requested for CCCCn1nnnc1NCc1cc(OC)c(OC)c(OC)c1
Response line: inactive

Prompt line: Recorded test call requested for Cc1nn(C)c(C)c1S(=O)(=O)N1CCC(CO)(Cc2ccc(Cl)cc2)CC1
Response line: inactive

Prompt line: Recorded test call requested for CCOC(=O)C1(CCOC)CCN(Cc2ccc(C(=O)OC)cc2)CC1
Response line: inactive

Prompt line: Recorded test call requested for NC(=O)C1CC=CCC1C(=O)OCC(Cl)=C(Cl)Cl (stereo not given)
Response line: inactive

Prompt line: Recorded test call requested for O=c1cc(CO)oc(C(Nc2cccc([N+](=O)[O-])c2)c2ccccn2)c1O (stereo not given)
Response line: inactive

Prompt line: Recorded test call requested for Cn1nnnc1NCc1ccc(Cl)c(Cl)c1
Response line: inactive

Prompt line: Recorded test call requested for CC(=O)Nc1cccc(-c2cc3nc(NCc4cccnc4)n(C)c(=O)c3s2)c1
Response line: inactive
